Each entry below carries its reported pKa.
Assay: Compound was evaluated for the protonation constant by binding to DNA by intercalation in calf thymus.
Format: ADME, Bos taurus
Settings: cattle
measurementType: pKa

1) OCCCNc1nnc(NCCCO)c2cc3ccccc3cc12
8.3
2) COc1cc(NS(C)(=O)=O)ccc1Nc1c2ccccc2nc2ccccc12
7.4
3) COCCCNc1nnc(NCCCOC)c2cc3ccccc3cc12
8.3
4) CN(C)CCCNc1nnc(NCCCN(C)C)c2cc3ccccc3cc12
6.2
